Hello, the source for this data is the Immune Epitope Database (IEDB), in case you need it.

Target: HLA-A*01:01
Experiment: IEDB peptide-MHC binding, purified MHC/competitive/radioactivity; bounds were set here for any values at or beyond the usual limits of such assays
Settings: source organism: Homo sapiens
assay_readout: IC50 (nM)
Quick note: give the figure in nM, leave out the unit.

Reported IC50 for HLA-A*01:01, given `FATCLGLSY` ? 658

###

Measured Kd by item
Molecular target: HLA-A*01:01
Assay: IEDB peptide-MHC binding, purified MHC/competitive/radioactivity; filed as Kd, often an IC50 or EC50 that approximates it; bounds were set here for any values at or beyond the usual limits of such assays
Conditions: source organism: Homo sapiens

Some solved entries appear below for comparison.
KVAELVHFL :: ≥ 36 µM
IFATCLGLSY :: 12.5 µM

What does the data say about its Kd? Entry: `LVFGIELMEV` ≥ 36 µM

// repeat for `LGSVVGNWQY` and report 12.5 µM

// repeat for `LLGDNQIMPK` and report ≥ 36 µM

// repeat for `NYPLWSQSY` and report ≥ 36 µM

// repeat for `LYIFATCLGL` and report ≥ 36 µM

// repeat for `LVTCLGLSY` and report 2.98 µM

// repeat for `KMVELVHFLL` and report ≥ 36 µM
